System: Huh-7 (Human liver carcinoma cell line)
Experiment: Resazurin cytotoxicity assay, Huh-7
Assay type: cell-based
Settings: Homo sapiens, Huh-7; resazurin assay, 48 h; >100 µM indicates no activity; read-out: Mean IC50 Huh-7
Description: Figure 5 Effect of the natural products on the viability of THP-1, Huh-7, and HEK-293 cells. Cytotoxic effect of NK-A17e233 (A); 1,2-benzenediol,3-(4-hydroxy-2-methoxy-6-methylphenoxy)-5-methyl-(ACI) (B); cyperin (C); ES-242-1 (D); ES-242-3 (E); 5S,6S-phomalactone (F) against the human cell lines THP-1, Huh-7, and HEK-293 as determined by resazurin assay. 100% growth control DMSO, 0% growth control cycloheximide. Values represent the means of triplicates ± SEM. […]
The entries below are paired with their reported IC50.
Unit µM implied. Number only.

COc1cc(OC)c2c(O)c3c(c(-c4c5c(c(O)c6c(OC)cc(OC)cc46)CO[C@@H](C)[C@H]5OC(C)=O)c2c1)C(O)[C@@H](C)OC3 (some centres unmarked); 13

Proceed to the following item.
Request the reported IC50 associated with `C/C=C/[C@@H]1OC(=O)C=C[C@@H]1O`
100

* * *

The entries below are paired with their reported pIC50.
System: THP-1 (human monocytic leukemia cell line)
Assay: Resazurin cytotoxicity assay, THP-1
Type: cell-based
Conditions: Homo sapiens, THP-1; resazurin assay, 48 h; >100 µM indicates no activity; read-out: Mean IC50 THP1
pIC50: −log10 of the molar value.

For orientation, consider the following solved cases.
COc1cc(OC)c2c(O)c3c(c(-c4c5c(c(O)c6c(OC)cc(OC)cc46)CO[C@@H](C)[C@H]5OC(C)=O)c2c1)C[C@@H](C)OC3; < 4.00
COc1cc(C)c(Oc2cc(C)cc(O)c2O)c(O)c1; < 4.00

Proceed to the following item.
Request the reported pIC50 associated with `COc1cc(O)cc(C)c1Oc1cc(C)cc(O)c1O`
< 4.00

* * *

Test system: Huh-7 (Human liver carcinoma cell line)
Test: Resazurin cytotoxicity assay, Huh-7
Type: cell-based
Conditions: Homo sapiens, Huh-7; resazurin assay, 48 h; >100 µM indicates no activity; read-out: Mean IC50 Huh-7
The entries below are paired with their reported IC50.

COc1cc(OC)c2c(O)c3c(c(-c4c5c(c(O)c6c(OC)cc(OC)cc46)CO[C@@H](C)[C@H]5OC(C)=O)c2c1)C[C@@H](C)OC3; > 100 µM
COc1cc(O)cc(C)c1Oc1cc(C)cc(O)c1O; > 100 µM

Request the reported IC50 associated with `COc1cc(C)c(Oc2cc(C)cc(O)c2O)c(O)c1`
> 100 µM
